These entries and their values trace back to ChEMBL document CHEMBL1131863.

# Test system: Streptococcus pneumoniae
# METHOD_DESCRIPTION: The compound was tested in vitro for antibacterial activity against constitutively erythromycin resistant Streptococcus pneumoniae 030CR18c
# Type: functional
MIC: recorded values
The reply should contain only the number, in mg/L.

Here is how some compounds turned out for MIC.
CC[C@H]1OC(=O)[C@H](C)[C@@H](O[C@H]2C[C@@](C)(OC)[C@@H](O)[C@H](C)O2)[C@H](C)[C@@H](O[C@@H]2O[C@H](C)C[C@H](N(C)C)[C@H]2O)[C@](C)(O)C[C@@H](C)CN(C)[C@H](C)[C@@H](O)[C@]1(C)O	40
CC[C@H]1OC(=O)[C@H](C)C(=O)[C@H](C)[C@@H](O[C@@H]2O[C@H](C)C[C@H](N(C)C)[C@H]2OC(C)=O)[C@](C)(OC)C[C@@H](C)C(=O)/C(C)=C/[C@]1(C)OC(=O)n1ccnc1	10
CC[C@H]1OC(=O)[C@H](C)[C@@H](O[C@H]2C[C@@](C)(OC)[C@@H](O)[C@H](C)O2)[C@H](C)[C@@H](O[C@@H]2O[C@H](C)C[C@H](N(C)C)[C@H]2O)[C@](C)(OC)C[C@@H](C)C(=O)[C@H](C)[C@@H](O)[C@]1(C)O	40

Streptococcus pneumoniae assay, compound "CC[C@H]1OC(=O)[C@H](C)C(=O)[C@H](C)[C@@H](O[C@@H]2O[C@H](C)C[C@H](N(C)C)[C@H]2O)[C@](C)(OC)C[C@@H](C)C(=O)[C@H](C)[C@H]2N(CCCCc3ccnc4ccccc34)C(=O)O[C@]12C" , recorded MIC = 1.2

---

# Test system: Streptococcus pneumoniae
# METHOD_DESCRIPTION: The compound was tested in vitro for antibacterial activity against erythromycin susceptible Streptococcus pneumoniae 032UC1.
# Type: functional
MIC: recorded values
Please make sure the unit comes right after the number.

Here is how some compounds turned out for MIC.
CC[C@H]1OC(=O)[C@H](C)C(=O)[C@H](C)[C@@H](O[C@@H]2O[C@H](C)C[C@H](N(C)C)[C@H]2O)[C@](C)(OC)C[C@@H](C)C(=O)[C@H](C)[C@H]2N(CCCCn3cnc(-c4ccccc4)n3)C(=O)O[C@]12C	0.04 µg/mL
CC[C@H]1OC(=O)[C@H](C)C(=O)[C@H](C)[C@@H](O[C@@H]2O[C@H](C)C[C@H](N(C)C)[C@H]2O)[C@](C)(OC)C[C@@H](C)C(=O)[C@H](C)[C@H]2N(CCCCn3cnc(-c4cccnc4)c3)C(=O)O[C@]12C	0.02 µg/mL
CC[C@H]1OC(=O)[C@H](C)C(=O)[C@H](C)[C@@H](O[C@@H]2O[C@H](C)C[C@H](N(C)C)[C@H]2O)[C@](C)(OC)C[C@@H](C)C(=O)[C@H](C)[C@H]2N(CCCCn3cnc(-c4ccccc4)c3)C(=O)O[C@]12C	0.02 µg/mL
CC[C@H]1OC(=O)[C@H](C)C(=O)[C@H](C)[C@@H](O[C@@H]2O[C@H](C)C[C@H](N(C)C)[C@H]2O)[C@](C)(OC)C[C@@H](C)C(=O)[C@H](C)[C@H]2N(CCCCn3ccc4ccccc43)C(=O)O[C@]12C	0.02 µg/mL

# MIC (compound: "CC[C@H]1OC(=O)[C@H](C)C(=O)[C@H](C)[C@@H](O[C@@H]2O[C@H](C)C[C@H](N(C)C)[C@H]2O)[C@](C)(OC)C[C@@H](C)C(=O)[C@H](C)[C@H]2N(CCCCn3nnnc3-c3ccccc3)C(=O)O[C@]12C" ) is 0.02 µg/mL

---

# Tested on: Streptococcus pneumoniae
# METHOD_DESCRIPTION: The compound was tested in vitro for antibacterial activity against constitutively erythromycin resistant Streptococcus pneumoniae 030PW23c
# Type: functional
REPORTED_METRIC: MIC (µg/mL)
The reply should contain only the number, in µg/mL.

CC[C@H]1OC(=O)[C@H](C)C(=O)[C@H](C)[C@@H](O[C@@H]2O[C@H](C)C[C@H](N(C)C)[C@H]2O)[C@](C)(OC)C[C@@H](C)C(=O)[C@H](C)[C@H]2N(CCCCc3ccnc4ccccc34)C(=O)O[C@]12C	1.2
CC[C@H]1OC(=O)[C@H](C)[C@@H](O[C@H]2C[C@@](C)(OC)[C@@H](O)[C@H](C)O2)[C@H](C)[C@@H](O[C@@H]2O[C@H](C)C[C@H](N(C)C)[C@H]2O)[C@](C)(O)C[C@@H](C)CN(C)[C@H](C)[C@@H](O)[C@]1(C)O	40
CC[C@H]1OC(=O)[C@H](C)[C@@H](O[C@H]2C[C@@](C)(OC)[C@@H](O)[C@H](C)O2)[C@H](C)[C@@H](O[C@@H]2O[C@H](C)C[C@H](N(C)C)[C@H]2O)[C@](C)(OC)C[C@@H](C)C(=O)[C@H](C)[C@@H](O)[C@]1(C)O	40

# MIC (molecule: "CC[C@H]1OC(=O)[C@H](C)C(=O)[C@H](C)[C@@H](O[C@@H]2O[C@H](C)C[C@H](N(C)C)[C@H]2OC(C)=O)[C@](C)(OC)C[C@@H](C)C(=O)/C(C)=C/[C@]1(C)OC(=O)n1ccnc1" ) is 10

---

MIC: recorded values
# Tested on: Staphylococcus aureus
# METHOD_DESCRIPTION: The compound was tested in vitro for antibacterial activity against inducibly erythromycin resistant Staphylococcus aureus 011GO25i.
# Assay type: functional
The reply should contain only the number, in µg/mL.

CC[C@H]1OC(=O)[C@H](C)C(=O)[C@H](C)[C@@H](O[C@@H]2O[C@H](C)C[C@H](N(C)C)[C@H]2O)[C@](C)(OC)C[C@@H](C)C(=O)[C@H](C)[C@H]2N(CCCCn3cnc(-c4ccccc4)c3)C(=O)O[C@]12C	0.3
CC[C@H]1OC(=O)[C@H](C)C(=O)[C@H](C)[C@@H](O[C@@H]2O[C@H](C)C[C@H](N(C)C)[C@H]2O)[C@](C)(OC)C[C@@H](C)C(=O)[C@H](C)[C@H]2N(CCCCn3ccc4ccccc43)C(=O)O[C@]12C	0.08
CC[C@H]1OC(=O)[C@H](C)C(=O)[C@H](C)[C@@H](O[C@@H]2O[C@H](C)C[C@H](N(C)C)[C@H]2O)[C@](C)(OC)C[C@@H](C)C(=O)[C@H](C)[C@H]2N(CCCCn3cnc(-c4ccccc4)n3)C(=O)O[C@]12C	0.15
CC[C@H]1OC(=O)[C@H](C)C(=O)[C@H](C)[C@@H](O[C@@H]2O[C@H](C)C[C@H](N(C)C)[C@H]2O)[C@](C)(OC)C[C@@H](C)C(=O)[C@H](C)[C@H]2N(CCCCn3cnc(-c4cccnc4)c3)C(=O)O[C@]12C [TELITHROMYCIN]	0.08

Then there is this compound:
# MIC (compound: "CC[C@H]1OC(=O)[C@H](C)C(=O)[C@H](C)[C@@H](O[C@@H]2O[C@H](C)C[C@H](N(C)C)[C@H]2O)[C@](C)(OC)C[C@@H](C)C(=O)[C@H](C)[C@H]2N(CCCCn3nnnc3-c3ccccc3)C(=O)O[C@]12C" ) is 0.6
